# SUBJECT OF TEST: CD3 (antigen of the binding affinity table of Example 1) (UniProt P07766)
# ASSAY DETAILS: kinetic fit with two-state parameters; method not given
ATTRIBUTE MEASURED: kd2 (s⁻¹)
Report as a plain number; the unit s⁻¹ is understood.

Use the examples below as a reference point.
1) H4L1 (antibody, V domains shown) VH: QVQLQQSGAEVKKPGASVKMSCKASGYTFTRYTMHWVRQAPGQGLEWIGYINPSRGYTNYNQKFKDRVTLTTDTSISTAYMELSRLRSDDTAVYYCARYYDDHYSLDYWGQGTTLTVSS VL: DIQMTQSPSSLSASVGDRVTMTCSASSSVSYMNWYQQKPGKAPKRLIYDTSKLASGVPSRFSGSGSGTDFTLTISSLQPEDFATYYCQQWSSNPFTFGSGTKLEINR : 0.0023
2) H2L4 (antibody, V domains shown) VH: QVQLQQSGAEVAKPGASVKVSCKASGYTFTRYTMHWVRQAPGQGLEWMGYINPSRGYTNYNQKFKDRATLTRDKSISTAYMELSRLRSDDTAVYYCARYYDDHYSLDYWGQGTTLTVSS VL: DIQLTQSPSSLSASVGDRVTITCSASSSVSYMNWYQQKPGKAPKLLIYDTSKLASGVPSRFSGSGSGTDFTLTISSMQPEDFATYYCQQWSSNPFTFGSGTKLEINR : 0.000671
3) H3L5 (antibody, V domains shown) VH: QVQLVQSGAEVKKPGASVKMSCKASGYTFTRYTMHWVRQAPGQGLEWIGYINPSRGYTNYNQKFKDRATMTTDKSISTAYMELSRLRSDDTAVYYCARYYDDHYSLDYWGQGTTLTVSS VL: DIQMTQSPSSLSASVGDRVTITCSASSSVSYMNWYQQKPGKAPKRWIYDTSKLASGVPSRFSGSGSGTDFTLTISSLQPEDFATYYCQQWSSNPFTFGSGTKLEINR : 0.00496
4) H3L2 (antibody, V domains shown) VH: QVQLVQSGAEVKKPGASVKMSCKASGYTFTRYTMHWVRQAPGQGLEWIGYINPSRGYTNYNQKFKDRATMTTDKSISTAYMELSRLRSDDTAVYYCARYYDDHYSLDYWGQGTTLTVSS VL: DIQMTQSPSSLSASVGDRVTMTCSASSSVSYMNWYQQKPGKAPKLLIYDTSKLASGVPSRFSGSGSGTDFTLTISSMQPEDFATYYCQQWSSNPFTFGSGTKLEINR : 0.000939

Read the next record carefully.
## Task Note kd2 for the binder shown: H4L6 (antibody, V domains shown) VH: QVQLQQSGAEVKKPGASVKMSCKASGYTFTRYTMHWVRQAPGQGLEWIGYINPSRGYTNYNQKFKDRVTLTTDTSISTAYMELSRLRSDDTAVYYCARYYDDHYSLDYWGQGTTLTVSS VL: DIQMTQSPSSLSASVGDRVTITCSASSSVSYMNWYQQKPGKAPKLWIYDTSKLASGVPSRFSGSGSGTDYTLTISSLQPEDFATYYCQQWSSNPFTFGSGTKLEINR
## Result 0.000594
